System: Staphylococcus aureus
Test: Antimicrobial activity against Staphylococcus aureus incubated for 16 to 18 hrs by broth dilution assay
Assay type: functional
Conditions: time 16-18 hrs
Some molecules, each annotated with its measured MIC.
metric: MIC (mg/L)

>>> df
                           structure_smiles  metric  value_unit  numeric_result
0  CCCCCCCC[n+]1ccc(-c2cc[n+](CC3=C(C(=O)OCc4ccc(OC)cc4)N4C(=O)[C@@H](NC(=O)Cc5ccccc5)[C@H]4SC3)cc2)cc1.[I-].[I-]     MIC        mg/L             0.5
1  CCCCNC(=O)c1cc[n+](CC2=C(C(=O)O)N3C(=O)[C@@H](NC(=O)Cc4ccccc4)[C@H]3SC2)cc1.[I-]     MIC        mg/L           0.125
2  CCCCCCCCNC(=O)c1cc[n+](CC2=C(C(=O)OCc3ccc(OC)cc3)N3C(=O)[C@@H](NC(=O)Cc4ccccc4)[C@H]3SC2)cc1.[I-]     MIC        mg/L            0.25
